target: T1, HLA-B*08:01 (human); assay: UV peptide exchange ELISA
T1 construct: MHC monomer first loaded with a UV-sensitive peptide that is cleaved by UV light and exchanged for the test peptide
MEASURED METRIC: peptide exchange yield

> print(dat)
                                   binder  recorded.result
1  LPASFPAVL [LPASFPAVL (SEQ ID NO: 155)]        20 to 50%
2   DLKIPRYPV [DLKIPRYPV (SEQ ID NO: 68)]        50 to 75%
3     ELILKRCL [ELILKRCL (SEQ ID NO: 14)]        50 to 75%
4     SPRVKWTF [SPRVKWTF (SEQ ID NO: 31)]        20 to 50%
